# Assayed target: Muscarinic acetylcholine receptor M4 (Homo sapiens) (UniProt P08173)
# Sequence (P08173 whole entry, looked up): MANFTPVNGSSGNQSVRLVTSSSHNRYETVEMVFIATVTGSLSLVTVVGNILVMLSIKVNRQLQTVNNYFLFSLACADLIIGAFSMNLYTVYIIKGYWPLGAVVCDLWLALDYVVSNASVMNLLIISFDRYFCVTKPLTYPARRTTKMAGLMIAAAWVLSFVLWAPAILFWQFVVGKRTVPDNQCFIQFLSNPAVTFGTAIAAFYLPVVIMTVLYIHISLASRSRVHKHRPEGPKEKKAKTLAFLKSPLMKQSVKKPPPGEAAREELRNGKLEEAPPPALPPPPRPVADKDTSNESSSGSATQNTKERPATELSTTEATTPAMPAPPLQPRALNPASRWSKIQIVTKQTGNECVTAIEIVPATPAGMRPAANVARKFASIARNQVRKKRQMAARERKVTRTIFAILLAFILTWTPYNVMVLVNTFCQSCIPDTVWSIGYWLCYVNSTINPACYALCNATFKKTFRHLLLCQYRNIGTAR
# Protocol details: M4-linked GIRK flux change, two-sided – cell-based, HEK293 M4/GIRK, thallium flux, BTC-AM, M4 allosteric agonist project, primary screen (AID 625);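 note: thallium influx through GIRK channels coupled to M4 in HEK293 cells with BTC-AM dye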
# Experimental setup: at 10 µM, actives lie on both sides
Please go through the items and note down their fluorescence slope.
Give bare numbers.

Example cases with answers are listed next.
COc1cccc(-n2c(C)nc3c(cnn3-c3ccc(C)cc3)c2=O)c1	0.00597
Cc1cc(-c2nc3ncccc3o2)ccc1N	0.00386
Cc1ccc2nc(SC(C)C(=O)N3CCCC3)[nH]c2c1 (configuration not stated)	0.00661
Cc1cnc(C(=O)Nc2ccc(-n3cnnn3)cc2)cn1	0.00454
Cc1nc(SCC#N)c2c(C)c(C)sc2n1	0.00593
CCN(CC)C(=O)CN(c1cc(Cl)ccc1OC)S(C)(=O)=O	0.00573
Cc1nc(C)c(C(=O)C2=C(O)C(=O)N(CCN3CCOCC3)C2c2cccnc2)s1 (configuration not stated)	0.0026
CCC(c1nnc(SCC(=O)NCC2CCCO2)n1Cc1ccccc1)N(C)C (configuration not stated)	0.00548

Each compound below has a reported value. Please supply its fluorescence slope.
1. CCCSC1=C(C#N)C(c2ccccc2OCC)CC(=O)N1 (configuration not stated)
2. COc1cccc2cc(C(=O)n3ccc(C)n3)c(=O)oc12
3. CCOC(=O)CNS(=O)(=O)c1c(C)noc1C
4. O=C(CN1C(=O)c2ccccc2C1=O)NCC1COc2ccccc2O1 (configuration not stated)
5. N#Cc1cnc(SCC(=O)Nc2ccccc2C(F)(F)F)nc1N
6. O=C(O)C1CC(=O)N(c2ccc(OCc3c(F)cccc3Cl)cc2)C1 (configuration not stated)

OUTPUT:
1. 0.00486
2. 0.00485
3. 0.00456
4. 0.00703
5. 0.00496
6. 0.0057

----------
# Protocol details: endothelial E-selectin expression blockers – imaging, HUVEC, immunofluorescence, MLSMR starter and 10KST1 sets, primary screen (AID 487);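 note: signal is fraction of cell area covered by stained E-selectin grains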
# Experimental setup: HUVEC TNFalpha-induced E-selectin immunofluorescence imaging, at 2 µM; stronger effect = higher value
Calls of active or inactive are those of the source.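 The calls were made as follows: active = visually confirmed hit in the image check and inhibition above 20%; inconclusive = visually confirmed hit but inhibition not above 20%; inactive = no visual hit in the image check.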
Quantity measured: inhibition

Hey, quick one: what's inhibition for each of these?
1. Cn1c2c(c(=O)[nH]c1=O)C(NC(=O)c1ccco1)(C(F)(F)F)C(=O)N2 (stereo not given)
2. O=S(=O)(NCC1CCCO1)c1ccc(S(=O)(=O)N2CCc3ccccc3C2)cc1 (stereo not given)
3. COCCn1nnnc1C(c1cc2cc(C)cc(C)c2[nH]c1=O)N1CCN(c2ccccc2F)CC1 (stereo not given)
4. CCN1CCN(c2c(Cl)cccc2NC(=O)c2ccco2)CC1
5. CC(NC(=O)c1ccco1)C(c1cccs1)N1CCN(c2ccc(F)cc2)CC1 (stereo not given)

OUTPUT:
-95% (inactive)
-132% (inactive)
13.5% (inactive)
-12.4% (inactive)
-22.2% (inactive)

----------
# Assayed target: Voltage-gated potassium channel subunit beta-2 (Rattus norvegicus)
# Protocol details: inhibitors of rat Kvbeta2 reductase activity – biochemical, NADPH fluorescence, primary screen (AID 622);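 note: slope of raw intensity against log time taken from 70 to 1610 s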
# Experimental setup: recombinant KvBeta, 4-cyanobenzaldehyde reduction, at 10 µM, stronger effect = higher value
Please enter satisfied where fluorescence slope is greater than or equal to -0.5, and not satisfied where it is lower.

Use the examples below as a reference point.
COc1ccccc1-c1nc(C(F)(F)F)c(OC)o1	satisfied
CCn1cc(C(=O)N2CCCC2)c(=O)c2cc(S(=O)(=O)N3CCOCC3)ccc21	satisfied
COc1ccc(Cc2nnc3n2N=C(c2cc4ccccc4o2)CS3)cc1OC	satisfied
COc1ccc(OCc2nc(N)nc(Nc3cccc(C)c3C)n2)cc1	satisfied
Cc1ccc(S(=O)(=O)NC(C(=O)OCC(=O)NC2CCS(=O)(=O)C2)C(C)C)cc1 (configuration not stated)	not satisfied
CCn1c2ccccc2c2cc(NC(=O)CSc3nnc(C4CC4)n3Cc3ccco3)ccc21	satisfied

INPUT: Would you say Cc1ccc(Cn2c(SCC(C)C)nc3c2c(=O)n(C)c(=O)n3C)cc1 shows fluorescence slope at minimum -0.5?
OUTPUT: satisfied
